The following compounds are listed with their measured % Survival values.
system: cerebellar granule neurons; test: LK-induced death of cultured cerebellar granule neurons, viability by DAPI staining; type: cell-based, rat; details: Table 1; 25 μM in LK medium, 24 h; % of survival in control cultures in HK medium; LK alone 48%
Express it in %; write the number only.

query: Looking for the measured % Survival of CN1C(=S)C(=Cc2ccc[nH]2)Oc2ccccc21 , can you help?
result: 65.1

query: Same question, COc1ccc(OC)c(C=C2Oc3ccccc3NC2=S)c1 this time
result: 74.0

query: For COc1cc(/C=C2\Oc3ccc(I)cc3NC2=O)cc(OC)c1OC then?
result: 59.4

query: Next compound: O=C1Nc2ccccc2OC1=Cc1cccs1
result: 68.8

query: And what about the compound CC(=O)Oc1c(Br)cc(/C=C2\Oc3ccc([N+](=O)[O-])cc3NC2=O)cc1Br ?
result: 63.5

query: Try this compound next: O=C1Nc2ccccc2OC1=Cc1cc(Br)c(O)c(Br)c1
result: 95.12

// next entry
query: Look at this compound and give its reported % Survival. S=C1Nc2ccccc2OC1=Cc1cccs1
result: 39.3

---

system: cerebellar granule neurons; experiment: LK-induced death of cultured cerebellar granule neurons, viability by DAPI staining; type: cell-based, rat; conditions: Table 1; 25 μM in LK medium, 24 h; % of survival in control cultures in HK medium; LK alone 48%
Entries and their % Survival values follow.
The figure you give is taken to be in %; do not add the unit.

Some solved entries appear below for comparison.
query: Request: % Survival, test system cerebellar granule neurons, entry CN(C)c1ccc(C=C2Oc3ccccc3NC2=O)cc1
result: 63.3

query: // repeat for Nc1ccc2c(c1)NC(=O)/C(=C/c1cc(Br)c(O)c(Br)c1)O2 and report
result: 95.1

New cases:
query: Record COc1cc(/C=C2\Oc3ccc(C)cc3NC2=O)cc(OC)c1OC : what is its % Survival with cerebellar granule neurons?
result: 63.9

---

test system: cerebellar granule neurons; test: LK-induced death of cultured cerebellar granule neurons, viability by DAPI staining; assay type: cell-based, rat; conditions: Table 1; 25 μM in LK medium, 24 h; % of survival in control cultures in HK medium; LK alone 48%
readout: % Survival (%)
Field: numeric (%). Do not append units.

query: State the recorded % Survival for this entry: Cc1ccc2c(c1)NC(=O)/C(=C/c1ccsc1)O2
result: 61.0

query: O=C1Nc2ccccc2O/C1=C\c1cc(Br)cc(Br)c1 , same question.
result: 69.1

query: COc1cc(C=C2Oc3ccccc3NC2=O)cc(OC)c1OC , same question.
result: 69.2

---
query: Param item = O=C1Nc2cc(Cl)ccc2O/C1=C\c1cc(Br)c(O)c(Br)c1 ; retrieve measured % Survival.
result: 91.24
